The reported numbers originate from patent US20230084927A1.

test system: SDH-KO-HRAS cells (SDHB-deficient); test: Cellular / differential toxicity assay (CellTiter-Glo, 3 days); format: cell-based, murine; settings: Mus musculus, 72 h, toxicity, SDH-KO cells, 3 days, CellTiter-Glo; read-out: EC50 (uM) SDH-KO-HTAS-C17
Each entry below carries its recorded EC50.

COMPOUND	EC50
CN(C)Cc1c2c(nc3sc4c(NCCc5ccc6[nH]cnc6c5)ncnc4c13)CC(C)(C)OC2 [Compound 334]	< 1 µM
CC1(C)Cc2nc3sc4c(NCCc5ccc6[nH]ccc6c5)ncnc4c3cc2CO1 [Compound 116]	1 to 3 µM
CC1(C)Cc2nc3sc4c(N5CCNCC5)ncnc4c3cc2CO1 [Compound 136]	> 10 µM
CC1(C)Cc2nc3sc4c(NCCc5ccc(N6CCCC6=O)cc5)ncnc4c3cc2CO1 [Compound 156]	1 to 3 µM
COc1cc(CCNc2ncnc3c2sc2nc4c(cc23)COC(C)(C)C4)cc(OC)c1 [Compound 102]	3 to 10 µM
CC1(C)Cc2nc3sc4c(N5CCN(CCO)CC5)ncnc4c3cc2CO1 [Compound 288]	> 10 µM
Cc1nc(N)c2sc3nc4c(cc3c2n1)COC(C)(C)C4 [Compound 237]	3 to 10 µM
CC1(C)Cc2nc3sc4c(N(CCO)CCO)ncnc4c3cc2CO1 [Compound 275]	> 10 µM

====

tested on: SDH-KO-HRAS cells (SDHB-deficient); experiment: Cellular / differential toxicity assay (CellTiter-Glo, 3 days); type: cell-based, murine; settings: Mus musculus, 72 h, toxicity, SDH-KO cells, 3 days, CellTiter-Glo; read-out: EC50 (uM) SDH-KO-HTAS-C17
Here, each record is paired with measured EC50 data.

COMPOUND	SYSTEM	EC50
CC(O)c1nc2cc(CCNc3ncnc4c3sc3nc5c(cc34)COC(C)(C)C5)ccc2[nH]1 (centres unmarked)	SDH-KO-HRAS cells (SDHB-deficient)	1 to 3 µM
CC1CCCCN1c1ncnc2c1sc1nc3c(cc12)COC(C)(C)C3 (centres unmarked)	SDH-KO-HRAS cells (SDHB-deficient)	> 10 µM
CC1(C)Cc2nc3sc4c(NCCc5ccc(N)c(F)c5)ncnc4c3cc2CO1	SDH-KO-HRAS cells (SDHB-deficient)	< 1 µM
CC1(C)Cc2nc3sc4c(NCCc5ccc6[nH]cnc6c5)ncnc4c3c(COC3CCCC3)c2CO1	SDH-KO-HRAS cells (SDHB-deficient)	< 1 µM
CC1(C)Cc2nc3sc4c(N5CCOCC5)ncnc4c3cc2CO1	SDH-KO-HRAS cells (SDHB-deficient)	> 10 µM
CCCOc1ccc(CCNc2ncnc3c2sc2nc4c(cc23)COC(C)(C)C4)cc1OC	SDH-KO-HRAS cells (SDHB-deficient)	3 to 10 µM
CC(=O)OC(C)C(=O)Nc1ccc(CCNc2ncnc3c2sc2nc4c(cc23)COC(C)(C)C4)cc1[N+](=O)[O-] (centres unmarked)	SDH-KO-HRAS cells (SDHB-deficient)	3 to 10 µM
CC1(C)Cc2nc3sc4c(NCCc5ccc(N)cc5)ncnc4c3cc2CO1	SDH-KO-HRAS cells (SDHB-deficient)	< 1 µM
CC1(C)CCc2cc3c(nc2C1)sc1c(CCC2(c4ccccc4)CCCC2)cccc13	SDH-KO-HRAS cells (SDHB-deficient)	> 10 µM
CC(C)c1nc(NCCc2ccc3[nH]cnc3c2)c2sc3nc4c(cc3c2n1)COC(C)(C)C4	SDH-KO-HRAS cells (SDHB-deficient)	1 to 3 µM
CC(=O)N(C)c1ccc(CCNc2ncnc3c2sc2nc4c(cc23)COC(C)(C)C4)cc1	SDH-KO-HRAS cells (SDHB-deficient)	< 1 µM
CN(Cc1ccccc1)c1ncnc2c1sc1nc3c(cc12)COC(C)(C)C3	SDH-KO-HRAS cells (SDHB-deficient)	> 10 µM
CC1(C)Cc2nc3sc4c(NCC5CCCO5)ncnc4c3cc2CO1 (centres unmarked)	SDH-KO-HRAS cells (SDHB-deficient)	3 to 10 µM
COc1cc(CCNc2ncnc3c2sc2nc4c(cc23)COC(C)(C)C4)ccc1F	SDH-KO-HRAS cells (SDHB-deficient)	3 to 10 µM
COc1ccc(CCN(C(C)=O)c2ncnc3c2sc2nc4c(cc23)COC(C)(C)C4)cc1F	SDH-KO-HRAS cells (SDHB-deficient)	> 10 µM
CC(=O)CNc1ccc(CCNc2ncnc3c2sc2nc4c(cc23)COC(C)(C)C4)cc1F	SDH-KO-HRAS cells (SDHB-deficient)	1 to 3 µM
CCN(CCO)c1ncnc2c1sc1nc3c(cc12)COC(C)(C)C3	SDH-KO-HRAS cells (SDHB-deficient)	3 to 10 µM
COCCOCCOCCN(C)Cc1c2c(nc3sc4c(NCCc5ccc6[nH]cnc6c5)ncnc4c13)CC(C)(C)OC2	SDH-KO-HRAS cells (SDHB-deficient)	< 1 µM
CC1(C)Cc2nc3sc4c(NCCc5ccc(NCc6ccccc6)c(N)c5)ncnc4c3cc2CO1	SDH-KO-HRAS cells (SDHB-deficient)	< 1 µM
Cc1nc(NCCc2ccccc2)c2sc3nc4c(cc3c2n1)COC(C)(C)C4	SDH-KO-HRAS cells (SDHB-deficient)	3 to 10 µM
c1cnc2sc3c(NCCc4ccc5[nH]cnc5c4)nc(C4CCCCC4)nc3c2c1	SDH-KO-HRAS cells (SDHB-deficient)	> 10 µM
CC1(C)Cc2nc3sc4c(NCCc5ccc6[nH]cnc6c5)ncnc4c3c(C(=O)OCCCCCCCCCCCC(=O)O)c2CO1	SDH-KO-HRAS cells (SDHB-deficient)	3 to 10 µM
CC1(C)Cc2nc3sc4c(NCCc5ccc(NC(=O)C(F)(F)F)c([N+](=O)[O-])c5)ncnc4c3cc2CO1	SDH-KO-HRAS cells (SDHB-deficient)	1 to 3 µM
